Molecular target: T1, human GIPR (human), P48546
T1 chain: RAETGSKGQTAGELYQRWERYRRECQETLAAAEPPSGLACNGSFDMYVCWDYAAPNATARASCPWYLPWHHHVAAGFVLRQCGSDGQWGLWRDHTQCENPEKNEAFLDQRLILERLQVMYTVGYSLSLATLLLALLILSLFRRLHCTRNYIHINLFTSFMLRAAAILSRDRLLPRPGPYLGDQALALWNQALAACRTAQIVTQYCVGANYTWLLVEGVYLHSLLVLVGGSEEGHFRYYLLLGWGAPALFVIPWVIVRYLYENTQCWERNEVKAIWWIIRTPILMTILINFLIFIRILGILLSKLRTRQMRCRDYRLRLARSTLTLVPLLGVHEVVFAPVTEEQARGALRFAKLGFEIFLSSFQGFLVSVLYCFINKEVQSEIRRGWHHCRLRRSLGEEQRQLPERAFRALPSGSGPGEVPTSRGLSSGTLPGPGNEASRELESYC
Non-standard residues stand in square brackets, D forms with d. Groups on a side chain read outwards from the residue. Primed or numbered codes have the meaning given here. No end group written: not given here. *: point of attachment. NMeY = CN[C@@H](Cc1ccc(O)cc1)C(=O)O; αMeF = C[C@](N)(Cc1ccccc1)C(=O)O; Lauroyl = CCCCCCCCCCCC(=O)*; Iva = CC[C@](C)(N)C(=O)O; Aib = CC(C)(N)C(=O)O
Experimental readout: Agonist activity (EC50, M)
Numbers only, in M.

Would you please look over these solved cases?
| Binder | Experimental readout | Number |
| --- | --- | --- |
| [NMeY][Aib]EGTFISDYSIALDRIAQQSFVNW[Iva]LAQRPSSGAPPPSR (not fully specified (N-terminus, C-terminus); ends and bridges not checked) [Compound 67] | Agonist activity (EC50, M) | 1.4e-12 |
| [NMeY][Aib]EGTFISDYSIALDRIAQ[Aib]DFVNW[Iva]LAQRPSSGAPPPSR (ends and bridges not checked) [Compound 123] | Agonist activity (EC50, M) | 1.3e-12 |

The binder listed as Y[Aib]EGTFISDYSK([PEG(2)-Lauroyl])ALDRIHQQS[αMeF]VNW[Iva]LAQRPSSGAPPPS (not fully specified (C-terminus); ends and bridges not checked) [Compound 223] shows Agonist activity (EC50, M) equal to 5.1e-12

Source listed as patent US20180298070A1.
